- Tested on: MS2 coat protein
- Test name: apparent Kd, MS2 coat protein; higher = weaker binding; RNA-MaP array; FMN 200 µM where present
- Condition description: designed as: OFF switch for flavin mononucleotide; no ligand
Kindly return T if reported apparent Kd is no lower than 30 nM; return F if it is lower.

Would you please look over these solved cases?
ACGCAUUGCCUUUGGUAGUGCGUUACAUGAGGAUCACCCAUGUAGGAUAUGGUAGGCAAAGCUUACCAGAAGGACAUGAUAAUU | T
CCGGCUUAGGAGGAUAUAGGAGUCGAUAGACACCUAGAAGGCCUAACAUGAGGAUCACCCAUGUGUCCUACCGG | F
GUAUAUAGUGUGAGGAUAUGCUGGUCCUUGGAUCAGCAGAAGGCACAUGAGGAUCACCCAUGUAGUUAAAUAUG | F
UUGAUGUGAGGAUAUGUGAUCUGCCUUCUAUAUAGAUGAUUACAGAAGGCACAUGAGGAUCACCCAUGUAGAUC | T
UGUCCAUAGCAGAAGGACAUGAAUAAAUAUGAAAACAUGAGGAUCACCCAUGUAGGAUAUGCUAUGGACUAAGAGCGAAAGCUC | F

Task item: Tell me whether apparent Kd is at least 30 nM here: `AAAGGUUGAGGAUAUGCGUGGAAAAAGUGUAUUCAAAAAAAACAUGAGGAUCACCCAUGUAGAAGGCGACCAAA`
Reply: T

Task item: Tell me whether apparent Kd is at least 30 nM here: `GUUUAGUGAGGAUAUGUGGCGUAGAUCGAGCGCGGUCGGCUACAGAAGGCACAUGAGGAUCACCCAUGUUUCUC`
Reply: T
